Tested on: M. phlei ATCC 11758
Counter-ions that a name gives are not always drawn.
Readout: MIC (µg/mL)
# output: bare number, implied unit µg/mL

Worked cases, answers included:
>>> reported("NCCCNCCC(c1cccc(OC(F)(F)F)c1)c1cn(C2CCCCC2)c2ccccc12 (centres unmarked)")
4
>>> reported("Cc1cccc(C(CCNC2CCNCC2)c2cn(CC3CCCCC3)c3ccccc23)c1.Cl (centres unmarked)")
2
>>> reported("N[C@H]1CC[C@H](NC2CCC(c3cn(CC4CCCCC4)c4ccc(Br)cc34)CC2)CC1 (single isomer, unassigned) [Compound 266, hydrochloride salt]")
2
>>> reported("NC1CCC(NCCC(c2cccc(OC(F)(F)F)c2)c2cn(CC3CCCCC3)c3ccccc23)CC1 (centres unmarked) [Compound 173, hydrochloride salt]")
1
>>> reported("Cc1cccc(C(CCN[C@H]2CC[C@H](N)CC2)c2cn(CC3CCCCC3)c3ccccc23)c1 (some centres unmarked) [Compound 199, hydrochloride]")
2
>>> reported("Cc1cccc(-c2ccc3c(c2)c(C2CCCC(NCCCN)C2)cn3C2CCCCC2)c1 (centres unmarked)")
4
>>> reported("Cc1cccc(-c2ccc3c(c2)c(CCCNCCCN)cn3C2CCCCC2)c1.Cl.Cl")
4
>>> reported("N#Cc1ccc2c(c1)c(C(CCNCCCN)c1cccc(OC(F)(F)F)c1)cn2C1CCCCC1 (centres unmarked) [Compound 372, dihydrochloride salt]")
4

Request: Provide M. phlei ATCC 11758 MIC reading for COc1ccccc1-c1ccc2c(c1)c(CCCN[C@H]1CC[C@H](N)CC1)cn2CC1CCCCC1 [Compound 237, hydrochloride salt] .
Response: 2

Request: Give M. phlei ATCC 11758 MIC for the following compound: Cl.Cl.NCCCNCCC(c1cn(C2CCCCC2)c2ccccc12)C1CCCCC1 (centres unmarked)
Response: 4

Request: Using M. phlei ATCC 11758 as the test system, report measured MIC of Cc1cccc(C(CCNC2CCC(N)CC2)c2cn(CC3CCCCCC3)c3ccccc23)c1 (centres unmarked) [Compound 245, hydrochloride salt] .
Response: 2

Request: Fill in MIC for Cc1cccc(-c2ccc3c(c2)c(CCCNCC(O)CN)cn3C2CCCCC2)c1 (centres unmarked) tested with M. phlei ATCC 11758.
Response: 4

Request: Please report MIC with M. phlei ATCC 11758 for item Cc1cccc(-c2ccc3c(c2)c(CCN[C@H]2CC[C@H](N)CC2)cn3CC2CCCCC2)c1 [Compound 225, hydrochloride salt] .
Response: 1

Request: Please report the measured MIC for Cc1cccc(C(CCNCCCN)c2cn(C3CCCCC3)c3cc(Br)ccc23)c1.Cl.Cl (centres unmarked) tested on M. phlei ATCC 11758.
Response: 4
